Where do these numbers come from? They come from patent US20030044399A1.

The entries below come with measured Ki values attached.
biological target: Cruzain (Trypanosoma cruzi, UniProt P25779); assay: Cysteine protease inhibition, progress curve method, cruzain; assay type: biochemical; conditions: 4 uM Ac-Lys-Glu-Lys-Leu-Arg-AMC, 100 mM Na acetate pH 5.5, 5 mM cysteine; read-out: Cruzain Ki
Sequence (P25779 123-337): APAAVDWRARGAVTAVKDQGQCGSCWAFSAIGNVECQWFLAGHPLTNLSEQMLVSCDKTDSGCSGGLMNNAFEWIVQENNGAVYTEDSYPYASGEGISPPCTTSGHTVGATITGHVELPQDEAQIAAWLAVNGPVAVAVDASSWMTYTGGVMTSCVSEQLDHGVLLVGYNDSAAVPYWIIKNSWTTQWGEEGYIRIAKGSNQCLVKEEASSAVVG

molecule	system_name	Ki (nM)
Cc1c(C(=O)N[C@H](CC(C)C)C(=O)N[C@@H]2CCCN(S(=O)(=O)c3ccccn3)CC2=O)oc2ccccc12 (single isomer, unassigned)	Cruzain (Trypanosoma cruzi, UniProt P25779)	4
CC(C)C[C@H](NC(=O)c1cc2ccccc2o1)C(=O)N[C@H]1CCCN(S(=O)(=O)c2cccs2)CC1=O [Example 38]	Cruzain (Trypanosoma cruzi, UniProt P25779)	4.5
CC(C)C[C@H](NC(=O)c1cc2ccccc2s1)C(=O)N[C@H]1CCCN(S(=O)(=O)c2ccccc2F)CC1=O	Cruzain (Trypanosoma cruzi, UniProt P25779)	11
CC(C)C[C@@H](NC(=O)c1ccc2ncccc2c1)C(=O)N[C@@H]1CCCN(S(=O)(=O)c2ccccn2)CC1=O (stereo in doubt) [Example 25]	Cruzain (Trypanosoma cruzi, UniProt P25779)	8.3
O=C(N[C@@H](Cc1ccccc1)C(=O)NC1CCCN(S(=O)(=O)c2ccccn2)CC1=O)c1cc2ccccc2o1 (some centres unmarked)	Cruzain (Trypanosoma cruzi, UniProt P25779)	13
CC(C)CC(NC(=O)c1cc2ccccc2o1)C(=O)N[C@@H]1CCCN(S(=O)(=O)c2ccccc2C#N)CC1=O (some centres unmarked)	Cruzain (Trypanosoma cruzi, UniProt P25779)	14
CC(C)C[C@H](NC(=O)c1cc2ccccc2s1)C(=O)NC1CCCN(S(C)(=O)=O)CC1=O (some centres unmarked)	Cruzain (Trypanosoma cruzi, UniProt P25779)	18
Cc1c(C(=O)NC(CC(C)C)C(=O)N[C@H]2CCCN(S(=O)(=O)c3cccc[n+]3[O-])CC2=O)oc2cc(F)ccc12 (single isomer, unassigned)	Cruzain (Trypanosoma cruzi, UniProt P25779)	11
CC(C)C[C@@H](NC(=O)c1ccc(Br)o1)C(=O)N[C@@H]1CCCN(S(=O)(=O)c2cccc[n+]2[O-])CC1=O [Example 47]	Cruzain (Trypanosoma cruzi, UniProt P25779)	13
Cc1ccc(C(=O)NC(CC(C)C)C(=O)N[C@@H]2CCCN(S(=O)(=O)c3cccc[n+]3[O-])CC2=O)s1 (some centres unmarked)	Cruzain (Trypanosoma cruzi, UniProt P25779)	16
COc1ccc2oc(C(=O)N[C@@H](CC(C)C)C(=O)N[C@H]3CCCN(S(=O)(=O)c4ccccc4F)CC3=O)cc2c1	Cruzain (Trypanosoma cruzi, UniProt P25779)	49
CC(C)C[C@@H](NC(=O)c1cc2ccccc2cn1)C(=O)N[C@@H]1CCCN(S(=O)(=O)c2ccccn2)CC1=O (stereo in doubt)	Cruzain (Trypanosoma cruzi, UniProt P25779)	24
CC(C)C[C@H](NC(=O)c1cc2ccccc2o1)C(=O)NC1CCCN(Cc2ccc3ccccc3n2)CC1=O (some centres unmarked)	Cruzain (Trypanosoma cruzi, UniProt P25779)	7.7
CC(C)C[C@H](NC(=O)c1cc2ccccc2o1)C(=O)N[C@H]1C[C@H](C)CN(S(=O)(=O)c2ccccn2)CC1=O (single isomer, unassigned) [Example 173]	Cruzain (Trypanosoma cruzi, UniProt P25779)	2
COc1cccc2cc(C(=O)N[C@H](CC(C)C)C(=O)N[C@H]3CCCN(S(=O)(=O)c4ccccn4)CC3=O)oc12	Cruzain (Trypanosoma cruzi, UniProt P25779)	4.2
CC(C)C[C@@H](NC(=O)c1ccc2c(c1)OCO2)C(=O)N[C@@H]1CCCN(S(=O)(=O)c2ccc(F)cc2)CC1=O (stereo in doubt)	Cruzain (Trypanosoma cruzi, UniProt P25779)	11
CC(C)C[C@@H](NC(=O)c1cc2cc(OCCN3CCCC3)ccc2o1)C(=O)NC1CCCN(S(=O)(=O)c2ccccc2)CC1=O (single isomer, unassigned)	Cruzain (Trypanosoma cruzi, UniProt P25779)	32
CC(C)C[C@H](NC(=O)c1cnc2ccccc2n1)C(=O)N[C@H]1CCCN(S(=O)(=O)c2ccccc2F)CC1=O	Cruzain (Trypanosoma cruzi, UniProt P25779)	8.7
CC(C)C[C@H](NC(=O)c1ccc2ccccc2n1)C(=O)NC1CCCN(Cc2ccccc2)CC1=O (some centres unmarked)	Cruzain (Trypanosoma cruzi, UniProt P25779)	44
CC(C)C[C@@H](NC(=O)c1cc2ccccc2o1)C(=O)N[C@@H]1CCCN(S(=O)(=O)c2cccc[n+]2[O-])CC1=O [Example 49]	Cruzain (Trypanosoma cruzi, UniProt P25779)	5.6
CC(C)C[C@H](NC(=O)c1cnc2ccccc2n1)C(=O)NC1CCCN(C(=O)Nc2ccccc2F)CC1=O (some centres unmarked)	Cruzain (Trypanosoma cruzi, UniProt P25779)	11
O=C(NC(Cc1ccc2ccccc2c1)C(=O)NC1CCCN(S(=O)(=O)c2ccccn2)CC1=O)c1cccc2cccnc12 (centres unmarked)	Cruzain (Trypanosoma cruzi, UniProt P25779)	6.8
COc1cccc2cc(C(=O)N[C@@H](CC(C)C)C(=O)N[C@@H]3CCCN(S(=O)(=O)c4cccs4)CC3=O)oc12	Cruzain (Trypanosoma cruzi, UniProt P25779)	5.5
Cc1c(C(=O)N[C@H](CC(C)C)C(=O)NC2CCCN(S(=O)(=O)c3cccc[n+]3[O-])CC2=O)oc2ccccc12 (some centres unmarked)	Cruzain (Trypanosoma cruzi, UniProt P25779)	10
CC(C)C[C@H](NC(=O)c1cc2ccccc2n1C)C(=O)N[C@H]1CCCN(S(=O)(=O)c2nccs2)CC1=O	Cruzain (Trypanosoma cruzi, UniProt P25779)	17
CC(C)CC(NC(=O)c1cc2ccccc2o1)C(=O)N[C@H]1CCCN(S(=O)(=O)c2nccn2C)CC1=O (some centres unmarked)	Cruzain (Trypanosoma cruzi, UniProt P25779)	2.3
